# inhibition of aggregation annotations
method: reduction of polyQ htt aggregates in cells – imaging, exon1htt(103Q)mCFP cells, high-content imaging, primary screen (AID 483);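 further: compound exposure lasted 3 days before fixation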
testParameters: exon1htt(103Q)mCFP cell line, aggregate imaging, at 2 µM; stronger effect = higher value
Write down the numeric answer in % and omit the unit.

Solved entries:
• O=c1[nH]c(=O)n(-c2ccc(F)cc2)c(O)c1C=Nc1ccccc1N1CCCC1 = -4.4
• c1cncc(CNC2=NCCCCC2)c1 = 2.4
• O=C(Cc1ccccc1)OC(COCc1ccccc1)CN1CCOCC1 (configuration not stated) = -19.1

Item: CC(C)[C@@]1(NC(=O)[C@@H]2C=C3c4cccc5[nH]cc(c45)C[C@H]3N(C)C2)O[C@@]2(O)[C@@H]3CCCN3C(=O)[C@H](Cc3ccccc3)N2C1=O | inhibition of aggregation: 7.1

----------
method: reduction of polyQ htt aggregates in cells – imaging, exon1htt(103Q)mCFP cells, high-content imaging, primary screen (AID 483);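 further: compound exposure lasted 3 days before fixation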
testParameters: exon1htt(103Q)mCFP cell line, aggregate imaging, at 2 µM; stronger effect = higher value
outcomeMeasure: inhibition of aggregation (%)
Express your answer in %, writing the number without its unit.

Examples from the recorded data:
• O=C(Cn1cc(C(=O)c2ccccc2)c2ccccc21)NCc1ccco1 = 3.1
• CC1=NOC2(C)Nc3ncnn3C(c3ccccc3)C12 (stereo unspecified) = 21
• CCCC(=O)OCC[N+](C)(C)C = -16.7
• CCOC(=O)C1SC2(C(F)F)CC1(O)c1c(c(OC)c3occc3c1OC)O2 (stereo unspecified) = 13
• CCOc1ccc(-n2c(O)c(C=NCCN(CC)CC)c(=O)[nH]c2=O)cc1 = -1.7

In the following, a different compound is considered.
// sample c1ccc(C2CC3CC(c4ccco4)N2O3)cc1 (stereo unspecified) , its inhibition of aggregation was 0

----------
method: reduction of polyQ htt aggregates in cells – imaging, exon1htt(103Q)mCFP cells, high-content imaging, primary screen (AID 483);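 further: compound exposure lasted 3 days before fixation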;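 on nuclei count: percent of the per-plate median nuclei count of sample wells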
testParameters: exon1htt(103Q)mCFP cell line, aggregate imaging, at 2 µM; measured here: cell count, toxicity
Residues, ends and D or L forms follow the SMILES beside them.
outcomeMeasure: nuclei count (%)
Numeric only. Scale: %

// solved cases for nuclei count follow
- CCOCC(=O)NC1CCSC1=O (configuration not stated): 75.2
- CCCCn1c(O)c(C(C)=Nc2cccc(C(=O)O)c2)c(=O)[nH]c1=O: 75.2
- CC(C)OC(=O)c1c(N)n(CC2CCCO2)c2nc3ccccc3nc12 (configuration not stated): 104
- C=CCn1c(O)c(C=NCCN(C)C)c(=O)[nH]c1=O: 97.7
- NC(=O)CSP(=O)(c1ccccc1)c1ccccc1: 110

GET /value?item= C=CCn1c(O)c(C(C)=NCc2cccnc2)c(=O)[nH]c1=O &field=nuclei count returns 96

Consider CC(C)[C@@]1(NC(=O)[C@@H]2C[C@@H]3c4cccc5[nH]cc(c45)C[C@H]3N(C)C2)O[C@@]2(O)[C@@H]3CCCN3C(=O)[C@H](Cc3ccccc3)N2C1=O . Its measured nuclei count is 90.4

Item: CCC(=NCCCN1CCOCC1)c1c(O)n(Cc2ccccc2)c(=O)[nH]c1=O | nuclei count: 101

Input O=C(C(Cc1ccccc1)NS(=O)(=O)c1ccc(F)cc1)N1CCC2(CC1)OCCO2 (configuration not stated) . Output nuclei count: 99.8

Recorded nuclei count (compound COc1ccc2[nH]cc(CCN(C)C)c2c1 ): 95.6

Summary for this compound, Cc1ccccc1-n1c(O)c(C=NCCN2CCOCC2)c(=O)[nH]c1=O : nuclei count is 138

Per the record, CC1(C)CC(=O)C=C(NCCN2CCN(C(=O)Cc3ccc(Cl)cc3)CC2)C1 has nuclei count of 120

The measured nuclei count associated with CC(C)C[C@H](NC(=O)[C@@H]1CCCN1C(=O)[C@@H](N)Cc1ccc(O)cc1)C(=O)NCC(N)=O (H-YPLG-NH2) reads 103

Lab note: CC1=C(C(=O)N2CCC3(CC2)OCCO3)C2(CCC(C)CC2)OC1=O (configuration not stated) gave nuclei count of 104

Sample CCCCOc1ccc(CN2CCN(CCO)CC2)cc1 ; nuclei count observed: 115

compound CCC(=NCC1CCCO1)c1c(O)n(Cc2ccccc2)c(=O)[nH]c1=O (configuration not stated) , nuclei count observed: 97.1

The measured nuclei count associated with Clc1ccc(CSC(Cn2ccnc2)c2ccc(Cl)cc2Cl)cc1 (configuration not stated) reads 108

Reported nuclei count of COc1ccc(CCNC(=O)c2c(N)n(CCN3CCOCC3)c3nc4ccccc4nc23)cc1 : 90.9

Lookup result for O=c1[nH]c(=O)n(Cc2ccco2)c(O)c1C=NCCCn1ccnc1 ; measured nuclei count: 89.9
